- Tested on: Sonic hedgehog protein (Shh)
- Measurement description: small-molecule binders of Shh protein, primary screen, biochemical, small-molecule microarray, 635/667 nm fluorescence (AID 1151);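 also: Shh protein binding to compounds spotted on small-molecule microarray slides; score combines spot fluorescence intensity with signal-to-noise across triplicate slides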
- Experimental conditions: small-molecule microarray binding, 635 nm fluorescence; higher = more signal
Overview of recorded composite z-score for various molecules
Enter the number alone.

Solved cases below.
>>> observed_result("COCCCNC(=O)[C@@]1(CCS(=O)(=O)c2ccccc2)N=C(c2ccc(OCCCO)cc2)O[C@H]1c1ccccc1CN=[N+]=[N-]")
0.744
>>> observed_result("C=C(C1=CCN(S(=O)(=O)c2ccc(C)cc2)C1)[C@@H](OC(C)=O)[C@@H]1CCCN1S(=O)(=O)c1ccccc1[N+](=O)[O-]")
0.706
>>> observed_result("CC(C)C[C@@H]1NC(=O)[C@@]23C(=O)N[C@@H](Cc4ccccc4)C2[C@H](C)[C@@]2(C)O[C@H]2C3/C=C/C/C=C\\CNC(=O)[C@H](Cc2ccccc2)NC1=O (stereo partly specified)")
0.46

Ask | // returns reported composite z-score for input `C=CCC1(CC=C)C[C@H]2CO[C@H](c3ccc(OC)cc3)N2C1=O`
Reply | 0.707

Ask | Suppose we examine the molecule `COCCCNC(=O)[C@@]1(Cc2ccccc2CN=[N+]=[N-])COC(c2ccc(OCCCO)cc2)=N1` ; what composite z-score value has been reported?
Reply | 0.13

Ask | Entry `COCCOC(=O)N1C(=O)[C@@]2(c3cc(C#CCNC(N)=O)ccc31)[C@H](C(=O)NC[C@H](O)c1ccccc1)[C@H]1C(=O)O[C@H](c3ccccc3)[C@H](c3ccccc3)N1[C@@H]2c1ccc(O)cc1` has what composite z-score?
Reply | 0.746

Ask | # input molecule: `CC(C)(C)OC(=O)CC[C@@]12N=C(c3ccc(OCCCO)cc3)O[C@@H]1c1ccccc1CN(Cc1ccccc1)C2=O` ; wanted: its composite z-score
Reply | 1.04

Ask | What does the data say about its composite z-score? Entry: `COc1ccc([Si](C)(C)[C@@H]2[C@@H](CCn3cc([C@H](O)c4ccccc4)nn3)O[C@]3(C(=O)N(C)c4c(Br)cc(C)cc43)[C@H]2C)cc1`
Reply | 0.658

Ask | Fill in: composite z-score of `C=C(CCCC)/C(=C/C[C@H](OC(=O)c1ccncc1)c1ccc(CO)o1)c1cnc2ccccc2c1` is ___
Reply | 1.95

Ask | Which composite z-score reading was recorded for the molecule `NCCCCCCNC(=O)[C@@H]1C[C@@H]2C(=O)N[C@@H](Cc3ccccc3)C(=O)N2[C@@H]1c1ccc(O)cc1` ?
Reply | 0.507

Ask | What composite z-score value was documented for this molecule, `Cc1ccc(S[C@]2(C(=O)NCCN3CCOCC3)CC(=O)N(Cc3cc(C(F)(F)F)cc(C(F)(F)F)c3)[C@@H]2c2ccc(CO)cc2)cc1` ?
Reply | -0.105

====

- Target system: NADPH oxidase 4 (Homo sapiens) (UniProt Q9NPH5)
- Sequence (Q9NPH5 whole entry, looked up): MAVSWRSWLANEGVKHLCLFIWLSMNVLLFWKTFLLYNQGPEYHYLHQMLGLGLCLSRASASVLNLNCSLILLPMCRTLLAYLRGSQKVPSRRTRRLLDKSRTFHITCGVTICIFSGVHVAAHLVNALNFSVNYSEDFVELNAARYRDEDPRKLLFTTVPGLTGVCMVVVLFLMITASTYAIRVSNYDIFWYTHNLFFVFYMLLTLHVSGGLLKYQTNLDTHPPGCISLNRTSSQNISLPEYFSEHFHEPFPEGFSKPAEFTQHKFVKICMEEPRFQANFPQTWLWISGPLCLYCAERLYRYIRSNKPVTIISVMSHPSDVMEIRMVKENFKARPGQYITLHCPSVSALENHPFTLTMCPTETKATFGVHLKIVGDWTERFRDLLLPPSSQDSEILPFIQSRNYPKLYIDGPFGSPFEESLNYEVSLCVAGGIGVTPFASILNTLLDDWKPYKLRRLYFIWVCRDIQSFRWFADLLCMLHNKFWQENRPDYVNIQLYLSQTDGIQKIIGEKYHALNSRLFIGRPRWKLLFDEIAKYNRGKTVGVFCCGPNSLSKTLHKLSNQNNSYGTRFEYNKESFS
- Measurement description: NOX4-dependent H2O2 signal modulators, primary screen, NOX inhibitor project, cell-based, HEK293-NOX4, tetracycline-induced, Amplex Red fluorescence (AID 1160)
- Experimental conditions: 45 min, higher = more signal, called active from +8 up or from −8 down
z-score of 0.2 or higher: Fulfilled. Under 0.2: Not fulfilled.

These solved cases illustrate the format of a correct answer.
>>> answer_label("O=C1O[C@H](c2ccccc2)[C@H](c2ccccc2)N2[C@H]1[C@@H](C(=O)NC[C@H](O)c1ccccc1)[C@]1(C(=O)Nc3ccc(C#CC4(O)CCCCCC4)cc31)[C@H]2c1ccc(O)cc1")
"Fulfilled"
>>> answer_label("C=CCNC(=O)[C@@H]1[C@H]2C(=O)O[C@H](c3ccccc3)[C@H](c3ccccc3)N2[C@H](c2ccc(O)cc2)[C@@]12C(=O)Nc1ccc(C#Cc3ccc(OC)cc3)cc12")
"Fulfilled"
>>> answer_label("COC(=O)C1=CC(CCCO)=CC(C2CC2)N(Cc2cc3c(cc2Br)OCO3)C=C1C(=O)OC (stereo not given)")
"Fulfilled"

Ask | Has `CCCCC(=C=CC[C@@H](O)c1ccc(OCCO)cc1)C[C@@H](O)c1cc(Cl)cc(Cl)c1O` a recorded z-score greater than or equal to 0.2?
Reply | Fulfilled

Ask | z-score >= 0.2 for `[N-]=[N+]=NCc1ccccc1C[C@@]1(C(=O)NCc2ccccc2)N=C(c2ccc(OCCCO)cc2)O[C@@H]1c1ccccc1` ?
Reply | Fulfilled

Ask | Decide: z-score of COC(=O)C1=CC(c2ccc(CO)cc2)=CC(C2CC2)N(C)C=C1C(=O)OC (stereo not given) >= 0.2?
Reply | Not fulfilled

Ask | Would you say `C=CCN1C(=O)[C@@]2(O[C@@H](CCO)[C@H]([Si](C)(C)c3ccc(OC)cc3)[C@H]2C)c2cc(N(C=O)c3ccccc3)ccc21` shows z-score at minimum 0.2?
Reply | Fulfilled

Ask | Could you verify whether the entry `C=C(COC)/C(=C/C[C@H](OC(C)=O)c1cccc(OCCO)c1)c1cc(C(=O)OC)ccc1OC` shows z-score of no less than 0.2?
Reply | Not fulfilled

Ask | Could you tell me if the measured z-score of `Cc1ccc(N2C(=O)c3ccccc3[C@](C)(C(=O)NCC(F)(F)F)[C@@H]2c2ccc(CO)cc2)nc1` reaches 0.2 or more?
Reply | Not fulfilled

Ask | Is it the case that `COCCOC(=O)N1C(=O)[C@@]2(c3ccccc31)[C@H](C(=O)Nc1nc3ccccc3s1)[C@H]1C(=O)O[C@H](c3ccccc3)[C@H](c3ccccc3)N1[C@@H]2c1ccc(O)cc1` has z-score reaching or exceeding 0.2?
Reply | Not fulfilled

Ask | Confirm if z-score reported for the compound `O=c1n(-c2ccccc2)c(=O)n2n1CC(COc1ccccc1)=C1[C@@H](CCc3ccccc3)OB(O)C[C@@H]12` is 0.2 or above.
Reply | Not fulfilled

Ask | hey, is z-score for this one >= 0.2? `CC(=O)NCCCC[C@@H]1NC(=O)[C@@H]2C[C@H](C(=O)O)[C@H](c3cccc(OCCO)c3)N2C1=O`
Reply | Not fulfilled

Ask | # bool: z-score of `COc1ccc([Si](C)(C)[C@@H]2[C@@H](CC(=O)N3CCC[C@H]3CO)O[C@]3(C(=O)N(Cc4ccc(N5CCC5=O)cc4)c4ccccc43)[C@H]2C)cc1` >= 0.2
Reply | Fulfilled
